# target: Caspase-3 (Homo sapiens, UniProt P42574)
# Sequence (P42574 whole entry): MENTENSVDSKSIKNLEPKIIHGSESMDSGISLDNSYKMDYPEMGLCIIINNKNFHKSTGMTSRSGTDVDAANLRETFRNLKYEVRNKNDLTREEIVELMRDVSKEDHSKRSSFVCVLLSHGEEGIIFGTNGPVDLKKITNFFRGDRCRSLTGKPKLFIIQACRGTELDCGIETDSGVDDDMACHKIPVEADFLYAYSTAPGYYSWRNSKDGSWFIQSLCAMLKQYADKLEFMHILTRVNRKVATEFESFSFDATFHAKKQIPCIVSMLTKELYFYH
pKi: −log10 of the molar value.
measured endpoint: pKi

* O=C(O)C[C@H](NC(=O)[C@@H](c1ccccc1)n1cccc(NC(=O)c2ccc3ccccc3c2)c1=O)C(=O)COc1ccccc1 | 6.78
